Ref: the supplement of paper PMC6757056

B1: library; a variant is named by its letters at N, in order (parent)
chain: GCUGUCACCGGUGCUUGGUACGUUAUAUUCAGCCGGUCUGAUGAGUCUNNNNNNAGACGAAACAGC

Variants of: B1
test.details: normalized RNA/DNA level without ligand (relative to sTRSVctl = 100) (log10 (% of sTRSVctl)); HEK293T overexpressing SLC46A1; higher = less ribozyme self-cleavage, higher mRNA level
measurement.conditions: without (6R,S)-folinic acid; ligand present: no
readout.type: normalized RNA/DNA level without ligand (log10)
// return a plain number; no unit text

Please report the recorded normalized RNA/DNA level without ligand (log10) for `CUAAAG` .
1.91

Please report the recorded normalized RNA/DNA level without ligand (log10) for `GUGGAC` .
1.87

Please report the recorded normalized RNA/DNA level without ligand (log10) for `CGCACU` .
2.04

Please report the recorded normalized RNA/DNA level without ligand (log10) for `GUGACC` .
2.03

Please report the recorded normalized RNA/DNA level without ligand (log10) for `CGACCC` .
2.05

Please report the recorded normalized RNA/DNA level without ligand (log10) for `CAACGC` .
2.02

Please report the recorded normalized RNA/DNA level without ligand (log10) for `ACACCG` .
1.99

Please report the recorded normalized RNA/DNA level without ligand (log10) for `GCUGGA` .
2.06

Please report the recorded normalized RNA/DNA level without ligand (log10) for `CGUACU` .
2.05

Please report the recorded normalized RNA/DNA level without ligand (log10) for `GCUGAU` .
2.04

Please report the recorded normalized RNA/DNA level without ligand (log10) for `UACGCU` .
2.03

Please report the recorded normalized RNA/DNA level without ligand (log10) for `UACUAC` .
2.02

Please report the recorded normalized RNA/DNA level without ligand (log10) for `UGAAUA` .
1.97

Please report the recorded normalized RNA/DNA level without ligand (log10) for `CCACCA` .
2.04

Please report the recorded normalized RNA/DNA level without ligand (log10) for `UACACU` .
2.02

Please report the recorded normalized RNA/DNA level without ligand (log10) for `GUCAAC` .
2.01

Please report the recorded normalized RNA/DNA level without ligand (log10) for `CUCAAC` .
2.07

Please report the recorded normalized RNA/DNA level without ligand (log10) for `UUGGCA` .
2.01

Please report the recorded normalized RNA/DNA level without ligand (log10) for `AUCGUC` .
2.11

Please report the recorded normalized RNA/DNA level without ligand (log10) for `AACAAU` .
1.94

Please report the recorded normalized RNA/DNA level without ligand (log10) for `UUCUGC` .
2.05

Please report the recorded normalized RNA/DNA level without ligand (log10) for `ACGCGA` .
1.99
